meta.source: ChEMBL document CHEMBL3132757

METHOD SUMMARY: Lipophilicity, log P of the compound by HPLC method
Type: physicochemical
Please enter TRUE where logP is greater than or equal to 3, and FALSE where it is lower.

{"COMPOUND": "O=C1C(=O)N(Cc2cccc(I)c2)c2ccc(S(=O)(=O)N3CCC[C@H]3CF)cc21", "CLASSIFICATION": "TRUE"}
{"COMPOUND": "O=C1C(=O)N(Cc2ccccc2[N+](=O)[O-])c2ccc(S(=O)(=O)N3CCC[C@H]3CF)cc21", "CLASSIFICATION": "FALSE"}
{"COMPOUND": "O=C1C(=O)N(Cc2nnnn2Cc2ccccc2)c2ccc(S(=O)(=O)N3CCC[C@H]3CF)cc21", "CLASSIFICATION": "FALSE"}
{"COMPOUND": "O=C1C(=O)N(Cc2ccc(OCCF)cc2)c2ccc(S(=O)(=O)N3CC4CNCC4C3)cc21 (stereo unspecified)", "CLASSIFICATION": "FALSE"}
{"COMPOUND": "O=C1C(=O)N(Cc2ccc([N+](=O)[O-])cc2)c2ccc(S(=O)(=O)N3CCC[C@H]3CF)cc21", "CLASSIFICATION": "FALSE"}
{"COMPOUND": "COC[C@@H]1CCCN1S(=O)(=O)c1ccc2c(c1)C(=O)C(=O)N2Cc1ccc(OC)cc1", "CLASSIFICATION": "FALSE"}
{"COMPOUND": "O=C1C(=O)N(Cc2ccccc2I)c2ccc(S(=O)(=O)N3CCC[C@H]3CF)cc21", "CLASSIFICATION": "TRUE"}
{"COMPOUND": "O=C1C(=O)N(Cc2ccc(OCCF)cc2)c2ccc(S(=O)(=O)N3CCC[C@H]3COc3ccccc3)cc21", "CLASSIFICATION": "TRUE"}
{"COMPOUND": "O=C1C(=O)N(Cc2ccc(Br)cc2)c2ccc(S(=O)(=O)N3CCC[C@H]3CF)cc21", "CLASSIFICATION": "TRUE"}
{"COMPOUND": "O=C1C(=O)N(Cc2ccc(F)cc2)c2ccc(S(=O)(=O)N3CCC[C@H]3CF)cc21", "CLASSIFICATION": "FALSE"}
